The reported numbers originate from the supplement of paper PMC11246515.

ASSAY EXPLANATION: total protein half-life in vivo (active degradation + dilution); higher = more stable protein
RUN PARAMETERS: E. coli NCM3722 delta-lon; growth: N-lim chemostat; doubling time 6 h
// reported total protein half-life in vivo per item
Give a bare numeral; the unit h is implied.

INSERT INTO results (residue_codes, result_number) VALUES
  ('MSKRYFVTGTDTEVGKTVASCALLQAAKAAGYRTAGYKPVASGSEKTPEGLRNSDALALQRNSSLQLDYATVNPYTFAEPTSPHIISAQEGRPIESLVMSAGLRALEQQADWVLVEGAGGWFTPLSDTFTFADWVTQEQLPVILVVGVKLGCINHAMLTAQVIQHAGLTLAGWVANDVTPPGKRHAEYMTTLTRMIPAPLLGEIPWLAENPENAATGKYINLALL', 5.17);

Problem: Look up total protein half-life in vivo for this sequence: MSWISPELIEILLTILKAVVILLVVVTCGAFMSFGERRLLGLFQNRYGPNRVGWGGSLQLVADMIKMFFKEDWIPKFSDRVIFTLAPMIAFTSLLLAFAIVPVSPGWVVADLNIGILFFLMMAGLAVYAVLFAGWSSNNKYSLLGAMRASAQTLSYEVFLGLSLMGVVAQAGSFNMTDIVNSQAHVWNVIPQFFGFITFAIAGVAVCHRHPFDQPEAEQELADGYHIEYSGMKFGLFFVGEYIGIVTISALMVTLFFGGWQGPLLPPFIWFALKTAFFMMMFILIRASLPRPRYDQVMSFGWKICLPLTLINLLVTAAVILWQAQ [P0AFD4]
Solution: 6.09

Problem: Note, next up: MKMIEVVAAIIERDGKILLAQRPAQSDQAGLWEFAGGKVEPDESQRQALVRELREELGIEATVGEYVASHQREVSGRIIHLHAWHVPDFHGTLQAHEHQALVWCSPEEALQYPLAPADIPLLEAFMALRAARPAD
Solution: 5.61
